Reported inhibition by item:
testedSystem: Serine/threonine-protein kinase PAK 6 (Homo sapiens) (UniProt Q9NQU5);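 note: mean PAK6 inhibition reported from the GSK PKIS screen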
Sequence (Q9NQU5 whole entry, looked up): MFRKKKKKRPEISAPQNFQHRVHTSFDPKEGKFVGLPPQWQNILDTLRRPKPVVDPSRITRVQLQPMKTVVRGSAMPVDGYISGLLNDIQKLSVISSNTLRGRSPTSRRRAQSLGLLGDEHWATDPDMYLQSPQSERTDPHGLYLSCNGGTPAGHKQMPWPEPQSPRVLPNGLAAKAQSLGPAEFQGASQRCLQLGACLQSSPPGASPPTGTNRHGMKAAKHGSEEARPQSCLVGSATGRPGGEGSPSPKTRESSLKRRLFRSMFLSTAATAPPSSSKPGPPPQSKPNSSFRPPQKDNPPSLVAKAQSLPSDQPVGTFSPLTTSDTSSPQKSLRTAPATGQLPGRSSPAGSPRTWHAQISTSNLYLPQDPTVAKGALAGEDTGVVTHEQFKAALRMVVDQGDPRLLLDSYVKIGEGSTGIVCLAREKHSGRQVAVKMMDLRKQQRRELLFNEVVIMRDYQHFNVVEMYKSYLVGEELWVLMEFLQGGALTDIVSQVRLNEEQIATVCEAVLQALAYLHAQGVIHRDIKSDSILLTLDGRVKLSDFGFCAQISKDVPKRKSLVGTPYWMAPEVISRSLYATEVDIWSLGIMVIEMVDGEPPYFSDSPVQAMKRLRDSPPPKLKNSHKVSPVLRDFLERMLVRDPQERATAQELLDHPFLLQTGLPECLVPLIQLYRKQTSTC
experimentalContext: at 0.1 µM
Output spec: scalar in %, unitless text.

# input compound: NS(=O)(=O)c1cccc(N/C=C2\C(=O)Nc3ccccc32)c1 ; wanted: its inhibition
3.85

# input compound: c1ccc(-c2n[nH]cc2-c2ccnc(-c3ccc(OCCn4ccnc4)cc3)c2)nc1 ; wanted: its inhibition
-3.76

# input compound: O=C(Nc1n[nH]c2nnc(-c3cccnc3)cc12)C1CC1 ; wanted: its inhibition
-7.92

# input compound: c1cnn2ncc(-c3ccnc(NCCCN4CCOCC4)n3)c2c1 ; wanted: its inhibition
-0.41

# input compound: N#Cc1cccc(Nc2ncc(-c3ccccc3)o2)c1 ; wanted: its inhibition
3.79

# input compound: CNC(=O)c1sc(-n2cnc3cc(OC)c(OC)cc32)cc1OCc1ccccc1C(F)(F)F ; wanted: its inhibition
-2.28

# input compound: COc1cccc(-n2ncc3c(N/N=C/c4ccc(C(=O)NCCN(C)C)cc4)ncnc32)c1 ; wanted: its inhibition
1.68

# input compound: CCCNc1cccc(-n2ncc3c(N/N=C/c4ccncc4)ncnc32)c1 ; wanted: its inhibition
16.9

# input compound: CC1=C(C(=O)Nc2ccc3[nH]nc(C)c3c2)C(c2ccc(C(F)(F)F)cc2)CC(=O)N1 (stereo not given) ; wanted: its inhibition
-0.15

# input compound: COc1cc2c(cc1Nc1nc(Nc3cccc(F)c3C(N)=O)c3cc[nH]c3n1)N(C(=O)CN1CCN(C(C)C)CC1)CC2 ; wanted: its inhibition
-9.4
